Provenance of the data: PubChem BioAssay (NCI)

Tested on: U251 CNS
test_method_notes: NCI tumour cell line growth inhibition, 48 h
Outcome: met for TGI of at least 30 µM; not met for anything lower.

1) CC(CN1CCN(CC(C)Nc2ccnc3cc(Cl)ccc23)CC1)Nc1ccnc2cc(Cl)ccc12 (stereo not given); met
2) COc1cc2c(c(OC)c1OC)C(=O)[C@H](Br)[C@H]2NC(=O)NCCCl; met
3) C[C@@H](Oc1ccc2[nH]nc(/C=C/c3cnn(CCO)c3)c2c1)c1c(Cl)cncc1Cl; not met
4) COC1CC(CC2CCC(C)C(C(C)C(=O)O)O2)OC2(OC(C)(C3CCC(C)(C4OC(C5OC(O)(CO)C(C)CC5C)CC4C)O3)CC2C)C1C (stereo not given); not met
5) COc1ccc(/C=C/C(=O)c2cc3c(N)c(C(=O)Nc4ccccc4C)sc3nc2C)cc1; met
6) CC(=O)N/N=C1/CC[C@@]2(C)C(=CC[C@H]3C4CCC(C(C)CCCC(C)C)[C@@]4(C)CCC32)C1(C)C (stereo not given in full); met
7) Cc1cc(N(CCC#N)CCC#N)ccc1N=Nc1cccc(Cl)c1; met
8) CCOc1ccc2ccc3cccnc3c2n1; met
9) O=[N+]([O-])C(=C(Nc1ccccc1)Nc1ccccc1)/C(Cl)=C(\Cl)Br; not met

----------
Test system: MDA-MB-435
Outcome codes: active, inactive

1) COC(=O)C1(C2CC/C(C)=C/CC/C(C)=C/CC[C@@]3(C)O[C@@H]3C2)CC1 (some centres undefined); inactive
2) O=S(=O)(NCCNc1cc(-c2cn(-c3ccccc3)nc2-c2cccc(O)c2)ccn1)c1ccc(Cl)cc1; inactive
3) COc1cc(NCc2ccccc2O)c2ncccc2c1; inactive
4) COc1ccc2c(c1)cn1c3ccc(O)cc3[nH]c(=O)c21; active

----------
Entries and their measured TGI follow.
Test system: 786-0 renal
test_method_notes: NCI tumour cell line growth inhibition, 48 h
outcome_measure: TGI

1. O=C(O)c1cscc1Cc1cccs1; > 100 µM
2. C=CCC(N[C@H](CO)c1ccccc1)c1cn(S(=O)(=O)c2ccc(C)cc2)c2ccccc12 (stereo not given in full); > 100 µM
3. C#Cc1cccc(Oc2ccc(NC(=O)CCl)cc2)c1; > 82.5 µM
4. CSc1nc2c(c(O)c(C)c(=O)n2C2OCC(OC(C)=O)C(OC(C)=O)C2OC(C)=O)c(=O)n1C (stereo not given); > 100 µM
5. CCOC(=O)C1=COC(C)(c2ccccc2)CC1=O (stereo not given); > 100 µM
6. O=C(O)Cn1c(=O)[nH]c(=O)c2[nH]cnc21; > 100 µM
7. COc1ccc(N=Nc2ccc3oc(=O)c(C(=O)Nc4ccc(Cl)cc4)cc3c2)cc1; > 10 µM
8. Cc1cccc(C)c1NC(=O)CCC(=O)NC(N)=S; > 100 µM
9. CC(=O)Oc1ccc(CO)cc1OC(C)=O; > 100 µM
10. COc1ccc(-c2nnc(N3CCN(C(=O)CN4CCN(c5ccc(Cl)cc5)CC4)CC3)nc2-c2ccc(OC)cc2)cc1; 69.8 µM
11. COC(=O)/C(=C/c1ccc(OC)cc1)NC(=O)c1ccccc1; > 100 µM
12. CCOP(=O)(OCC)[C@]12C[C@@H](C)C=C[C@H]1COC2=O; > 100 µM
13. CCCCN(CCCC)C(=O)C(=O)C(C)C(=O)CC (stereo not given); > 100 µM
14. c1cc[c]([Sn]([S]c2cccc3cccnc23)([S]c2cccc3cccnc23)[c]2ccccc2)cc1; 0.502 µM
15. O=C1/C(=C\c2ccc(F)cc2)CCOc2c1ccc1ccccc21; 62.5 µM
16. CCCCCCCCCCCCn1[nH]c(C)c(C(=S)SCCCCCCCC)c1=O; > 100 µM
17. COc1cc(Cl)c2c3c(c(C(=O)c4ccccc4)oc13)CCC2; > 100 µM
18. COc1cc(C)c(C)c(OC(=O)c2c(C)c(C)c(OC)c(C)c2OC)c1C; 53.4 µM
19. CCCCNC(=O)CCN(C(=O)O)S(=O)(=O)c1ccc(NC(=O)c2ccccc2)cc1; 29.7 µM
20. CC1(C)CCC[C@]2(C)[C@@H]1CC[C@@]13O[C@@H]1C1=C(CO)C(=O)OC1=C[C@@H]23; 27.3 µM
21. Cc1cc(=O)[nH]c(/N=C(\N)Nc2ccc(Cl)cc2)n1; > 100 µM
22. C/C(CC(=O)NC1=CC=C(NC(=O)C/C(C)=N\Nc2ccccc2)CC1)=N/Nc1ccccc1; > 100 µM
23. COc1ccc(CCNC(=O)CCc2ccccc2CO)cc1OC; > 100 µM
24. CC1(C)CC(=O)c2c(nc(SSc3nc4c(c(-c5ccc(Br)cc5)c3C#N)C(=O)CC(C)(C)C4)c(C#N)c2-c2ccc(Br)cc2)C1; > 10 µM
25. Cc1cc(=O)oc2c3c(ccc12)OC(c1ccc(Br)cc1)CC3=O (stereo not given); 25.5 µM
26. C[N+](C)(C)CC(=O)N/N=C(/CC1OC(=O)c2ccccc21)c1ccccc1O (stereo not given); 86.5 µM
27. O=C(O)/C(=C\c1ccccc1Cl)S(=O)(=O)c1ccccc1; > 100 µM
28. C/C(N=Nc1nc2ccccc2[nH]1)=C1/C=CC=CN1O; > 100 µM
29. O=c1[nH]c(Nc2ccc(Cl)cc2)nc2nc[nH]c12; > 100 µM
30. N#Cc1c(N)nc2c(c1-c1ccc(Br)cc1)CSc1ccccc1-2; > 100 µM
31. O=c1oc2ccccc2c(O)c1C(c1ccc2c(c1)Cc1ccccc1-2)c1c(O)c2ccccc2oc1=O; 66.9 µM
32. Cn1c(=O)cc(NCCc2ccccc2)[nH]c1=O; > 100 µM
33. CCCCCCCCCCCCCCCC(=O)OC(COC(C)=O)CO[P+](=O)O (stereo not given); 38.9 µM
34. COC(=O)c1nc(-c2nc(CCNC(=O)OC(C)(C)C)sc2Cl)sc1Cl; > 100 µM
35. OCC#Cc1ccccc1C#Cc1ccc(C#Cc2ccccc2C#CCO)s1; 37.7 µM

----------
System: SF-539 CNS
test_method_notes: NCI tumour cell line growth inhibition, 48 h
Below is a list of entries, each paired with its recorded TGI value.
outcome_measure: TGI

1. COC(=O)C1ON2C(C1C(=O)OC)C(C)(C)N(O)C2(C)C (stereo not given); > 10 µM
2. CCCC(=O)Oc1ccc2c(C)cc(=O)oc2c1OC(=O)CCC; > 100 µM
3. C/C(CC(=O)NC1=CC=C(NC(=O)C/C(C)=N\Nc2ccccc2)CC1)=N/Nc1ccccc1; > 100 µM
4. COC(=O)NC(=O)c1cn(CCCOC(=O)CCCCCCCCC(=O)OCCCn2cc(C(=O)NC(=O)OC)c(=O)[nH]c2=O)c(=O)[nH]c1=O; > 100 µM
5. CCCCN(CCCC)C(=O)C(=O)C(C)C(=O)CC (stereo not given); > 100 µM
6. COc1cc2c(c(OC)c1OC)C(=O)[C@H](Br)[C@H]2NC(=O)NCCCl; > 100 µM
7. C1=CC(=[N+]2N=C(c3ccccc3)CC2c2ccccc2)C=CC1=C1SC(c2ccccc2)(c2ccccc2)c2ccccc21 (stereo not given); > 100 µM
8. BrC1=CC=C2NCCCCCCN=C3C=CC(Br)=CC=C3NCCCCCCN=C2C=C1; > 25.5 µM
9. Cc1c2n(c3ccccc13)CC1CON(C)C21 (stereo not given); > 100 µM
10. CC1CCP(=O)(c2ccccc2)CC1 (stereo not given); > 100 µM

----------
Test system: TK-10 renal
test_method_notes: NCI tumour cell line growth inhibition, 48 h
outcome_measure: TGI

1) c1cc(-c2cn[nH]c2)cc(-c2cn[nH]c2)c1; > 100 µM
2) BrC1=CC=C2NCCCCCCN=C3C=CC(Br)=CC=C3NCCCCCCN=C2C=C1; > 25.5 µM
3) COc1ccc(-c2nnc(N3CCN(C(=O)CN4CCN(c5ccc(Cl)cc5)CC4)CC3)nc2-c2ccc(OC)cc2)cc1; > 100 µM
4) O=S(=O)(NCCNc1cc(-c2cn(-c3ccccc3)nc2-c2cccc(O)c2)ccn1)c1ccc(Cl)cc1; 23.1 µM
5) CCOC(=O)CCC(NC(=O)c1ccc(Nc2cnc3ccc(C(F)(F)F)cc3n2)cc1)C(=O)OCC (stereo unspecified); > 40.8 µM
6) Cc1ccccc1NC(=O)CC(=O)N1N=C(N2c3ccccc3Sc3ccccc32)CC1c1ccccc1 (stereo unspecified); > 100 µM
7) Cn1c(=O)cc(NCCc2ccccc2)[nH]c1=O; > 100 µM
8) O=C(Nc1ccc(Cl)cc1)c1cc(S(=O)(=O)Nc2nnc(-c3ccccc3)c(-c3ccccc3)n2)c(SCc2ccccc2)cc1Cl; > 64.4 µM
9) COc1ccc(CCNC(=O)CCc2ccccc2CO)cc1OC; > 100 µM
10) COc1cc2c(c(OC)c1OC)C(=O)[C@H](Br)[C@H]2NC(=O)NCCCl; > 100 µM
11) O=c1[nH]c(Nc2ccc(Cl)cc2)nc2nc[nH]c12; > 100 µM
12) CC(C)(C)OC(=O)CN1CCc2c(sc3ncnc(N/N=C/c4cccc5ccccc45)c23)C1; > 33.3 µM
13) O=C1CC(c2ccc(Cl)cc2)C2(C(=O)NC(=O)NC2=O)C(c2ccc(Cl)cc2)C1 (stereo unspecified); > 75 µM
14) CCCC(=O)OCC1OC(n2cc(F)c(=O)[nH]c2=O)C(F)C1OC(=O)CCC (stereo unspecified); > 100 µM
15) COc1cc(NCc2ccccc2O)c2ncccc2c1; > 100 µM
16) CC(C(=O)c1ccc(Cl)cc1)C1OC(=O)C(Cl)=C1Cl (stereo unspecified); > 100 µM
17) COC1CC(CC2CCC(C)C(C(C)C(=O)O)O2)OC2(OC(C)(C3CCC(C)(C4OC(C5OC(O)(CO)C(C)CC5C)CC4C)O3)CC2C)C1C (stereo unspecified); 36.8 µM
18) O=C(O)c1cscc1Cc1cccs1; > 100 µM
19) O=S(=O)(O)/C(=C\c1ccccc1)c1ccccc1 (tested in a mixture with another compound); > 100 µM
20) CN1CCN(c2ccc(NC3=C(Cl)C(=O)c4ncccc4C3=O)cc2C#N)CC1; 4.24 µM
21) O=c1oc2ccccc2c(O)c1C(c1ccc2c(c1)Cc1ccccc1-2)c1c(O)c2ccccc2oc1=O; > 100 µM
22) CCCCCCCCCCCC(=O)c1c(O)cccc1O; 92.4 µM
23) CCOC(=O)C1=COC(C)(c2ccccc2)CC1=O (stereo unspecified); > 100 µM
24) C[C@@H](Oc1ccc2[nH]nc(/C=C/c3cnn(CCO)c3)c2c1)c1c(Cl)cncc1Cl; 1.68 µM
25) CO[C@@]12C[C@H]3[C@@H]([C@@H](O)[C@@H](OC(=O)/C=C/c4ccccc4)[C@@]4(O)C(C)(C)CCC[C@]34C)[C@@H](C)C1=CC(=O)O2; > 100 µM
26) Cc1cc(=O)oc2c3c(ccc12)OC(c1ccc(Br)cc1)CC3=O (stereo unspecified); 27.1 µM
